Target: Adenosine receptor A1 (Homo sapiens) (UniProt P30542)
Sequence (P30542 whole entry): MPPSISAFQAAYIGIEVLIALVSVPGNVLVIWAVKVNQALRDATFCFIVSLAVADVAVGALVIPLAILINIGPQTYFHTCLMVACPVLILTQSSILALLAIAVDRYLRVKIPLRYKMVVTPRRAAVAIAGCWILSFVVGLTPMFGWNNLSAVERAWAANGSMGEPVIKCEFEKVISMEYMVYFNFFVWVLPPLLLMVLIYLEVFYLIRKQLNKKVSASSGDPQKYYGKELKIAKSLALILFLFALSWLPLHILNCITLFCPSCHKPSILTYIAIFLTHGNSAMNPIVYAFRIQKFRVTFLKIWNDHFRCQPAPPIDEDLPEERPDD
Assay: Displacement of [3H]DPCPX from human recombinant A1 receptor expressed in CHOA1 cell membranes at 1 uM incubated for 60 mins by radioligand binding competition assay relative to control
assay metric: inhibition (%)

- compound: "CC1=C(C(=O)OCC(F)(F)F)C(c2ccsc2)NC(=O)N1 (racemic)"
  inhibition (%): 2
- compound: "CC(C)OC(=O)C1=C(C(F)(F)F)NC(=O)NC1c1ccco1 (racemic)"
  inhibition (%): 11
- compound: "CCOC(=O)C1=C(C(F)(F)F)NC(=O)NC1c1ccsc1 (racemic)"
  inhibition (%): 32

a. CC1=C(C(=O)OCC(F)(F)F)C(c2ccco2)NC(=O)N1 (racemic)
b. CCOC(=O)C1=C(C)Nc2nc3ccccc3n2C1c1ccsc1 (configuration not stated)
c. CC(C)OC(=O)C1=C(C(F)(F)F)NC(=O)NC1c1ccsc1 (racemic)
Number of compounds to sort: 3. Sort criterion: inhibition, ascending. Answer format: the labels, in the requested order.
b, a, c
(b: 3%, a: 10%, c: 23%)

P. CC(C)OC(=O)C1=C(C(F)(F)F)Nc2nc3ccccc3n2C1c1ccoc1 (racemic)
Q. CC1=C(C(=O)O[C@H](C)C(F)(F)F)[C@@H](c2ccco2)n2c(nc3ccccc32)N1
R. CC1=C(C(=O)OC(C)C(F)(F)F)C(c2ccco2)NC(=O)N1 (stereo in doubt; 14i-D1)
S. CC1=C(C(=O)OC(C)C(F)(F)F)C(c2ccsc2)NC(=O)N1 (stereo in doubt; 14l-D2)
Number of compounds to sort: 4. Sort criterion: inhibition, ascending. Answer format: the labels, in the requested order.
R, S, P, Q
(R: 1%, S: 3%, P: 8%, Q: 12%)

From: ChEMBL document CHEMBL4414598
